A set of compounds tested on Cyclophilin A (Homo sapiens, UniProt P62937), with measured pIC50:
pIC50: −log10 of the molar value. Where a SMILES comes first, the peptide text is derived from it. [ ]: non-standard residue; d: D form. MeBmt = C/C=C/C[C@@H](C)[C@@H](O)[C@H](NC)C(=O)O; NMeI = CC[C@H](C)[C@H](NC)C(=O)O; NMeT = CN[C@H](C(=O)O)[C@@H](C)O; NMeL = CN[C@@H](CC(C)C)C(=O)O; NMeV = CN[C@H](C(=O)O)C(C)C; Abu = CC[C@H](N)C(=O)O; Sar = CNCC(=O)O

Solved cases below.
C/C=C/C[C@@H](C)[C@@H](O)[C@H]1C(=O)N[C@@H](CC)C(=O)N(C)CC(=O)N(C)[C@@H]([C@@H](C)O)C(=O)N[C@@H](C(C)C)C(=O)N(C)[C@@H](CC(C)C)C(=O)N[C@@H](CC(C)C)C(=O)N[C@H](C)C(=O)N(C)[C@@H](CC(C)C)C(=O)N(C)[C@@H](CC(C)C)C(=O)N(C)[C@@H](C(C)C)C(=O)N1C [Compound C51] (cyclo([MeBmt][Abu][Sar][NMeT]V[NMeL]L[dA][NMeL][NMeL][NMeV]))    > 5.70
C/C=C/C[C@@H](C)[C@@H](O)[C@H]1C(=O)N[C@@H](CC)C(=O)N(C)CC(=O)N(C)CC(=O)N[C@@H](C(C)C)C(=O)N(C)[C@@H](CC(C)C)C(=O)N[C@@H](C)C(=O)N[C@H](C)C(=O)N(C)[C@@H](CC(C)C)C(=O)N(C)[C@@H](CC(C)C)C(=O)N(C)[C@@H](C(C)C)C(=O)N1C    > 5.70

Next item in the queue.
Entry C/C=C/C[C@@H](C)[C@@H](O)[C@H]1C(=O)N[C@@H](CC)C(=O)N(C)CC(=O)N(C)[C@@H]([C@@H](C)CC)C(=O)N[C@@H](C(C)C)C(=O)N(C)CC(=O)N[C@@H](C)C(=O)N[C@H](C)C(=O)N(C)[C@@H](CC(C)C)C(=O)N(C)[C@@H](CC(C)C)C(=O)N(C)[C@@H](C(C)C)C(=O)N1C [Compound C25] (cyclo([MeBmt][Abu][Sar][NMeI]V[Sar]A[dA][NMeL][NMeL][NMeV])) ; pIC50 = > 5.70

====

# Tested System: Cyclophilin A (Homo sapiens)
# Construct: made in house
# Sequence (P62937 whole entry, species assumed): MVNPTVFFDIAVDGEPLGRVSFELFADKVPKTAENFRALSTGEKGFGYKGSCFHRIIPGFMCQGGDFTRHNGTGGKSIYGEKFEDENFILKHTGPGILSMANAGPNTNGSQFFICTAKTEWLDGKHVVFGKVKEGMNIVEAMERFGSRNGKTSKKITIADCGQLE
# Assay Procedure: AlphaLISA inhibition of binding of biotinylated Cyclosporin A to FLAG tagged Cyclophilin A
# Test Parameters: AlphaLISA signal; test concentration not given
Where a SMILES comes first, the peptide text is derived from it. [ ]: non-standard residue; d: D form. MeBmt = C/C=C/C[C@@H](C)[C@@H](O)[C@H](NC)C(=O)O; NMeT = CN[C@H](C(=O)O)[C@@H](C)O; NMeL = CN[C@@H](CC(C)C)C(=O)O; Tle = CC(C)(C)[C@H](N)C(=O)O; NMeV = CN[C@H](C(=O)O)C(C)C; NMeA = CN[C@@H](C)C(=O)O; dNMeA = CN[C@H](C)C(=O)O; Abu = CC[C@H](N)C(=O)O; Sar = CNCC(=O)O
# % signal per record follows
Form entry: value (%) — number only.

Solved cases below.
C/C=C/C[C@@H](C)[C@@H](O)[C@H]1C(=O)N[C@@H](CC)C(=O)N(C)CC(=O)N(C)[C@@H]([C@@H](C)O)C(=O)N[C@@H](C(C)(C)C)C(=O)N(C)[C@@H](C)C(=O)N[C@@H](CC(C)C)C(=O)N[C@H](C)C(=O)N(C)[C@@H](CC(C)C)C(=O)N(C)[C@@H](CC(C)C)C(=O)N(C)[C@@H](C(C)C)C(=O)N1C [Compound C75] (cyclo([MeBmt][Abu][Sar][NMeT][Tle][NMeA]L[dA][NMeL][NMeL][NMeV]))    3.88
C/C=C/C[C@@H](C)[C@@H](O)[C@H]1C(=O)N[C@@H](CC)C(=O)N(C)CC(=O)N(C)[C@@H]([C@@H](C)O)C(=O)N[C@@H](C(C)C)C(=O)N(C)[C@@H](CC(C)C)C(=O)N[C@@H](CC)C(=O)N[C@H](C)C(=O)N(C)[C@@H](CC(C)C)C(=O)N(C)[C@@H](CC(C)C)C(=O)N(C)[C@@H](C(C)C)C(=O)N1C [Compound C99] (cyclo([Abu][Sar][NMeT]V[NMeL][Abu][dA][NMeL][NMeL][NMeV][MeBmt]))    2.59

Next item in the queue.
Field % signal (system: Cyclophilin A (Homo sapiens)) for entry C/C=C/C[C@@H](C)[C@@H](O)[C@H]1C(=O)N[C@@H](CC)C(=O)N(C)CC(=O)N(C)[C@H](C)C(=O)N[C@@H](C(C)(C)C)C(=O)N(C)[C@@H](C)C(=O)N[C@@H](CC(C)C)C(=O)N[C@H](C)C(=O)N(C)[C@@H](CC(C)C)C(=O)N(C)[C@@H](CC(C)C)C(=O)N(C)[C@@H](C(C)C)C(=O)N1C [Compound C71] (cyclo([MeBmt][Abu][Sar][dNMeA][Tle][NMeA]L[dA][NMeL][NMeL][NMeV])) = −0.05
